The values you see were collected from patent US20230293535A1.

molecular target: human EGFR exon 20 H773_V774insNPH (Homo sapiens, UniProt P00533, INS773NPH); construct: host or cells: Ba/F3; experiment: EGFR Exon20 NPH insertion cellular phosphorylation inhibition (MSD pEGFR Y1068/total EGFR); type: cell-based; settings: Ba/F3 EGFR NPH ins cells, 4 h compound, p-EGFR(Y1068)/total EGFR
Sequence (P00533 with tags, fused parts or gaps INS773NPH): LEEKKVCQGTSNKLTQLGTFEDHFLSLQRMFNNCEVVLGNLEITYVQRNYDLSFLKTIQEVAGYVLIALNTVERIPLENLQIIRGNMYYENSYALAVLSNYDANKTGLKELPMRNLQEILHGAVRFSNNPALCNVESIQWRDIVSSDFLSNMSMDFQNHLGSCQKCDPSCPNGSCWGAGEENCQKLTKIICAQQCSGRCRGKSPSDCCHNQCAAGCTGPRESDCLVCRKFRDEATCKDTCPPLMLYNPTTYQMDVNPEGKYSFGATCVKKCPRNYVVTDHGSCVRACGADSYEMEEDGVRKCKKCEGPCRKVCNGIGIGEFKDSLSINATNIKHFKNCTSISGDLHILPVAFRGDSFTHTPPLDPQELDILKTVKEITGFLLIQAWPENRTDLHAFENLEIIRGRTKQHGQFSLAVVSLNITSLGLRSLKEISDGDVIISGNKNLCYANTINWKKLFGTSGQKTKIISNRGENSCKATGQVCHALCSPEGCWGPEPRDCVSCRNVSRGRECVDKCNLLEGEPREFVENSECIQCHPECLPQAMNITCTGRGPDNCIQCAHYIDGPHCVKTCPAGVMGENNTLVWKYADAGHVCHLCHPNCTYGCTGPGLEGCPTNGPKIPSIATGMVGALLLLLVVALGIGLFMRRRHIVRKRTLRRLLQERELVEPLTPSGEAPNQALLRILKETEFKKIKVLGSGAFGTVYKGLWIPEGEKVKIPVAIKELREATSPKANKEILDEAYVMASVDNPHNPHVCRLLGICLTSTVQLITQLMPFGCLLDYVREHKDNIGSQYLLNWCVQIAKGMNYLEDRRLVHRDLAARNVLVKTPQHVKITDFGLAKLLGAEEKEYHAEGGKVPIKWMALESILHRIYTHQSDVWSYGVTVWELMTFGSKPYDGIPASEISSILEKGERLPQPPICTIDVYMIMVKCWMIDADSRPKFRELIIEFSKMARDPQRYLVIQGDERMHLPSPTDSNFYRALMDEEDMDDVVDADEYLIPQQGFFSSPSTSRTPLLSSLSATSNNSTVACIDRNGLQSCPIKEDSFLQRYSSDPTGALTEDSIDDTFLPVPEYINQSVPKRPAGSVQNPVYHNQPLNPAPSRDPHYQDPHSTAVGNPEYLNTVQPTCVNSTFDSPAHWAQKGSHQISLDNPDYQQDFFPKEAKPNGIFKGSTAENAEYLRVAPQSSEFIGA
value type: pIC50
One number for each entry, as −log10 of the molar value.

C=CC(=O)Nc1cc(Nc2ncnc(Nc3cc(Cl)c(F)cc3C(C)(O)CC)n2)c(OC)cc1N1CCC[C@H]1CN(C)C (some centres unmarked) :: 6.57
C=CC(=O)Nc1cc(Nc2ncnc(Nc3cc(Cl)c(Cl)cc3C(C)(C)O)n2)c(OC)cc1N(C)CCN(C)C :: 7.82
C=CC(=O)Nc1cc(Nc2ncnc(Nc3cc(F)c(F)cc3C(C)(C)O)n2)c(OC)cc1N(C)CCN(C)C :: 8.09
[2H]C([2H])([2H])N(CCN(C)c1cc(OC)c(Nc2ncnc(Nc3cc(F)c(F)cc3C(C)(C)O)n2)cc1NC(=O)C=C)C([2H])([2H])[2H] :: 7.95
C=CC(=O)Nc1cc(Nc2ncnc(Nc3cc(Cl)c(F)cc3C(C)(C)O)n2)c(OC)cc1N1CCC[C@@H]1CN(C)C :: 7.86
C=CC(=O)Nc1cc(Nc2ncnc(Nc3cc(F)c(C4CC4)cc3C(C)(C)O)n2)c(OC)cc1N(C)CCN(C)C :: 8.21

# batch size: 2; output pIC50 per entry
1. C=CC(=O)Nc1cc(Nc2ncnc(Nc3cc(F)c(F)cc3C(C)(O)CC)n2)c(OC)cc1N(C)CCN(C)C (centres unmarked)
2. C=CC(=O)Nc1cc(Nc2ncnc(Nc3cc(Cl)c(F)cc3C(C)(O)CC)n2)c(OC)cc1N1CC[C@@H]1CN(C)C (some centres unmarked)

[7.71, 7.75]

* * *

tested on: Ri-1 cells; assay: BTK (wt) cell proliferation, Ri-1 (CellTiter-Glo, 72 h); format: cell-based; details: Ri-1, 72 h, Ri-1 cells, 72 h, CellTiter-Glo; read-out: BTK WT Ri-1 GI50;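 note: viable cells quantified as cellular ATP luminescence, proliferation normalized to a time-zero plate and the DMSO control, compounds tested across a dilution series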
Where a name gives a salt, the structure may show the parent alone.
value type: GI50 (nM)
One number for each entry, in nM.

Check out these entries, answers already filled in.
C=CC(=O)Nc1cc(Nc2nccc(Nc3cc(Cl)c(F)cc3C(C)(C)O)n2)c(OC)cc1N1CCC[C@@H]1CN1CCC1 [Compound 98, formic acid salt] :: 108
C=CC(=O)Nc1cc(Nc2nccc(Nc3cc(Cl)c(F)cc3C(C)(C)O)n2)c(OC)cc1N(C)CCN(C)C :: 8.2
C=CC(=O)Nc1cc(Nc2ncnc(Nc3ccccc3C3(O)CC3)n2)c(OC)cc1N(C)CCN(C)C :: 86.6

# input for lookup
Form: compound = `C=CC(=O)Nc1cc(Nc2ncnc(Nc3cc(F)c(F)cc3C(C)(C)O)n2)c(OC)cc1N(C)CCN1CCCCC1` ; GI50 = 415

* * *

Would you kindly list IC50 for each of these compounds?
target: human EGFR exon 20 H773_V774insNPH (Homo sapiens, UniProt P00533, INS773NPH); test: EGFR Exon20 NPH insertion cellular phosphorylation inhibition (MSD pEGFR Y1068/total EGFR); conditions: Ba/F3 EGFR NPH ins cells, 4 h compound, p-EGFR(Y1068)/total EGFR;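 note: IL3-independent Ba/F3 cells with constitutively phosphorylated EGFR, compound exposure at 37 °C under 5% CO2, electrochemiluminescent MSD measurement of the p-EGFR to total EGFR ratio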
Where a name gives a salt, the structure may show the parent alone.
Give bare numbers, in nM.

Here is how some compounds turned out for IC50.
C=CC(=O)Nc1cc(Nc2nccc(Nc3cc(Cl)c(F)cc3C(C)(C)O)n2)c(OC)cc1N1C[C@@H](C)C[C@@H]1CN(C)C :: 26.2
C=CC(=O)Nc1cc(Nc2ncnc(Nc3cc(Cl)c(Cl)cc3C(C)(C)O)n2)c(OC)cc1N1CC[C@@H](N(C)C)C1 :: 14.2
C=CC(=O)Nc1cc(Nc2ncnc(Nc3cc(F)c(F)cc3C(C)(O)CC)n2)c(OC)cc1N1CC[C@@H](N(C)C)C1 (stereo partly shown) :: 11.1
C=CC(=O)Nc1cc(Nc2ncnc(Nc3cc(Cl)c(F)cc3C(C)(C)O)n2)c(OC)cc1N1C[C@@H](F)[C@@H](N(C)C)C1 :: 33.1
C=CC(=O)Nc1cc(Nc2nccc(Nc3cc(Cl)c(F)cc3C(C)(C)O)n2)c(OC)cc1N1C[C@H](F)C[C@@H]1CN(C)C [Compound 88, formic acid salt] :: 10.1
C=CC(=O)Nc1cc(Nc2ncnc(Nc3cnc(C)cc3C(C)(C)O)n2)c(OC)cc1N(C)CCN(C)C :: 381
C=CC(=O)Nc1cc(Nc2ncnc(Nc3cc(F)c(Cl)cc3C(C)(C)O)n2)c(OC)cc1N1CC[C@@H]1CN(C)C :: 19.3
C=CC(=O)Nc1cc(Nc2nccc(Nc3cc(Cl)c(F)cc3C(C)(C)O)n2)c(OC)cc1N1CCC[C@@H]1CN1CCC1 [Compound 98, formic acid salt] :: 19.1

// for each compound below, give its IC50
1. C=CC(=O)Nc1cc(Nc2ncnc(Nc3cc(F)c(F)cc3C(C)(C)O)n2)c(OC)cc1N1CC[C@@H]1CN(C)C
2. C=CC(=O)Nc1cc(Nc2ncnc(Nc3cc(Cl)c(F)cc3C(C)(C)O)n2)c(OC)cc1N(C)CCN1CCCC1
3. C=CC(=O)Nc1cc(Nc2ncc(C#N)c(Nc3cc(Cl)c(F)cc3C(C)(C)O)n2)c(OC)cc1N1CC[C@@H](N(C)C)C1
4. C=CC(=O)Nc1cc(Nc2nccc(Nc3cc(Cl)c(F)cc3C(C)(C)O)n2)c(OC)cc1N1C[C@H](N(C)C)C2(CC2)C1 [Compound 83, formic acid salt]
5. C=CC(=O)Nc1cc(Nc2ncnc(Nc3ccccc3C3(O)CC3)n2)c(OC)cc1N(C)CCN(C)C

1. 46.5
2. 22.9
3. 35.5
4. 239
5. 19.7

* * *

target: EGFR L858R&T790M (Homo sapiens, UniProt P00533, L858R/T790M); construct: host or cells: NCI-H1975; assay: EGFR L858R and T790M cellular phosphorylation inhibition in NCI-H1975 (MSD); type: cell-based; settings: NCI-H1975 cells, 4 h compound, p-EGFR(Y1068)/total EGFR; read-out: EGFR L858R and T790M mutation IC50;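 note: phosphorylated and total EGFR detected by electrochemiluminescence, cells exposed to compound in medium containing 1% FBS at 37 °C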
Sequence (P00533 25-1210 T790M/L858R): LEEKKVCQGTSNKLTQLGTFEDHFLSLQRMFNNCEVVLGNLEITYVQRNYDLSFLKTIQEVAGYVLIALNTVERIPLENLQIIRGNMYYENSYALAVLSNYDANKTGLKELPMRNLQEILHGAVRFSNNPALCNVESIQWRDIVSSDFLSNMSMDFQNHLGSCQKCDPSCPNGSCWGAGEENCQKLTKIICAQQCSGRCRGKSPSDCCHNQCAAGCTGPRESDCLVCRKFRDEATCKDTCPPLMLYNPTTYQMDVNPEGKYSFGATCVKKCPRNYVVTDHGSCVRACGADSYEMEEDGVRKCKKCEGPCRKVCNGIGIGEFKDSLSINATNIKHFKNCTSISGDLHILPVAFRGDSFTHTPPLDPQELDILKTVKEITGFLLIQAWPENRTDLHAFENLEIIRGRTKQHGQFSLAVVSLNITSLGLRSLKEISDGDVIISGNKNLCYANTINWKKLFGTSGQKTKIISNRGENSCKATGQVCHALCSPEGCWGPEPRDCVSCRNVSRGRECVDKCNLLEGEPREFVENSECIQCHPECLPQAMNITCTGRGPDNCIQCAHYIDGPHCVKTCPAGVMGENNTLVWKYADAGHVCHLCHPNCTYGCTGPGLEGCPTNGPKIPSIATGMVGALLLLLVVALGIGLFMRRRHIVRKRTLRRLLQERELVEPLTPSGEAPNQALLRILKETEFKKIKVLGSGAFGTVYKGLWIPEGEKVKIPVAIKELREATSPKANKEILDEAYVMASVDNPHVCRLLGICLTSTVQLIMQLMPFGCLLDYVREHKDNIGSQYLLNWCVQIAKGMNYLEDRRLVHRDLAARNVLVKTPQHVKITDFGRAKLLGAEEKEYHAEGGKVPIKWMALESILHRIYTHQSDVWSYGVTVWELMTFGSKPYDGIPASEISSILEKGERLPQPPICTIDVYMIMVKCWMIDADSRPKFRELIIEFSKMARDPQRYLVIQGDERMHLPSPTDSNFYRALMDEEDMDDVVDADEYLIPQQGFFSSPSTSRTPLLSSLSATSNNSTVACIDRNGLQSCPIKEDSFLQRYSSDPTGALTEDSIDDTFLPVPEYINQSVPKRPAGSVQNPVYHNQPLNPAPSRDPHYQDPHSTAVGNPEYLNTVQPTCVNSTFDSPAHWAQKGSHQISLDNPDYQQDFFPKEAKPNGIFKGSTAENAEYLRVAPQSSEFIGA
# note: exactly 1 nM is not below, so it is -1; use 1 for IC50 strictly under it

Sample answers from the record:
C=CC(=O)Nc1cc(Nc2ncc(OC)c(Nc3cc(Cl)c(F)cc3C(C)(C)O)n2)c(OC)cc1N(C)CCN(C)C :: -1
C=CC(=O)Nc1cc(Nc2ncnc(Nc3cc(F)c(F)cc3C(C)(C)O)n2)c(OC)cc1N1CC[C@@H](N(C)C)C1 :: 1
C=CC(=O)Nc1cc(Nc2ncnc(Nc3cc(F)c(F)cc3C(C)(O)CC)n2)c(OC)cc1N(C)CCN(C)C (centres unmarked) :: 1
C=CC(=O)Nc1cc(Nc2ncnc(Nc3cc(F)c(F)cc3C(C)(O)CC)n2)c(OC)cc1N1CC[C@H]2CN(C)C[C@H]21 (some centres unmarked) :: -1
C=CC(=O)Nc1cc(Nc2ncnc(Nc3cccnc3C(C)(C)O)n2)c(OC)cc1N(C)CCN(C)C :: -1

Identify whether the compound `C=CC(=O)Nc1cc(Nc2ncnc(Nc3cc(F)c(Cl)cc3C(C)(C)O)n2)c(OC)cc1N1CCC[C@@H]1CN(C)C` records IC50 below 1 nM.
1

Problem: For the compound `C=CC(=O)Nc1cc(Nc2nccc(Nc3cc(Cl)c(Cl)cc3C(C)(C)O)n2)c(OC)cc1N1CC[C@@H]1CN(C)C` , is IC50 under 1 nM?
-1

Quick check: IC50 of `C=CC(=O)Nc1cc(Nc2ncnc(Nc3cc(Cl)c(F)cc3C(C)(C)O)n2)c(OC)cc1N1CC[C@@H](NC)C1` under 1 nM?
1

Check if IC50 falls below 1 nM for C=CC(=O)Nc1cc(Nc2ncnc(Nc3cc(Cl)c(F)cc3C(C)(O)CC)n2)c(OC)cc1N1CC[C@@H](N(C)C)C1 (single isomer, unassigned) [Compound 69] .
-1

In plain terms, does `C=CC(=O)Nc1cc(Nc2ncnc(Nc3ccc(F)c(F)c3C(C)(C)O)n2)c(OC)cc1N(C)CCN(C)C` come in under 1 nM for IC50?
-1

Is the reported IC50 for `C=CC(=O)Nc1cc(Nc2ncnc(Nc3ccc(Cl)c(F)c3C(C)(C)O)n2)c(OC)cc1N(C)CCN(C)C` strictly below 1 nM?
-1

* * *

target: WT EGFR (Homo sapiens, UniProt P00533); test: WT EGFR cellular phosphorylation inhibition in A-431 (hEGF stimulated, MSD); conditions: A431 cells, 4 h compound, then 100 ng/ml hEGF 10 min;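 note: electrochemiluminescence read-out of EGFR Tyr1068 phosphorylation expressed as ratio to total EGFR, cells kept in medium with 1% FBS, compounds tested as a concentration series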
Sequence (P00533 25-1210): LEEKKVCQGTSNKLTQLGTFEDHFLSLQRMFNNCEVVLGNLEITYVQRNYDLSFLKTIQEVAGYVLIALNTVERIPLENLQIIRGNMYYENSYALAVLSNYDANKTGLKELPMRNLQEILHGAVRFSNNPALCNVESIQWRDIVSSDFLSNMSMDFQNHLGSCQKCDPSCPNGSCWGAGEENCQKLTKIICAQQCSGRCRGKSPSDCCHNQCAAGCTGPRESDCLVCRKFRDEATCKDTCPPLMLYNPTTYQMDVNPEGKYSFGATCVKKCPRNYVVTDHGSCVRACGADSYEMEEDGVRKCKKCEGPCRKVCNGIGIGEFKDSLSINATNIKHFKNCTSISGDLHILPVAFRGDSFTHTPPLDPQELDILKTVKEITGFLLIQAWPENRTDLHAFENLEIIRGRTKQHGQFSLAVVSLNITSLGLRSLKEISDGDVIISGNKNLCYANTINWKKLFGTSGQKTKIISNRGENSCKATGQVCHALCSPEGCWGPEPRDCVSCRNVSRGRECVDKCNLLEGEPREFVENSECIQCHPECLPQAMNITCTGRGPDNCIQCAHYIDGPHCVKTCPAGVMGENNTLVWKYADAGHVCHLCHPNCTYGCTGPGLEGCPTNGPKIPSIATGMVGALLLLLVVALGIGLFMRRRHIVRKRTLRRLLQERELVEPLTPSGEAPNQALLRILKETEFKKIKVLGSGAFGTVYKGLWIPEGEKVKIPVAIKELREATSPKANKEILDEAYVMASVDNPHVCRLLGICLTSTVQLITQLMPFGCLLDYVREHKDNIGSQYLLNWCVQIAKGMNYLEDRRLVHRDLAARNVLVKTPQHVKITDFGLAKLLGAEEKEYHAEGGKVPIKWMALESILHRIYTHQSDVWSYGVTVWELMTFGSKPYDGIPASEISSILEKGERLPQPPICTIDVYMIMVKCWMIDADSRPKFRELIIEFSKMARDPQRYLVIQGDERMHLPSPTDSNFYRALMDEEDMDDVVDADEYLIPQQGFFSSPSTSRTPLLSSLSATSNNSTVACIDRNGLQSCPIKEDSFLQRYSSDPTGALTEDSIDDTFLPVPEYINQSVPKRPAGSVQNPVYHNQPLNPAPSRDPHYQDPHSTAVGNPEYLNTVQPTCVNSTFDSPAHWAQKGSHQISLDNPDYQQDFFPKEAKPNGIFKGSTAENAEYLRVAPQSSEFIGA
pIC50: −log10 of the molar value.
Label condition met when pIC50 is at or above 8; anything below gets condition not met.

C=CC(=O)Nc1cc(Nc2ncnc(Nc3ccccc3C(C)(O)C(F)(F)F)n2)c(OC)cc1N(C)CCN(C)C (stereo not drawn) :: condition not met
C=CC(=O)Nc1cc(Nc2nccc(Nc3cc(Cl)c(F)cc3C(C)(C)O)n2)c(OC)cc1N1C[C@@H](F)[C@@H](N(C)C)C1 :: condition not met
C=CC(=O)Nc1cc(Nc2ncnc(Nc3cc(F)c(F)cc3C(C)(O)CC)n2)c(OC)cc1N1CC[C@@H]1CN(C)C (stereo partly drawn) :: condition not met
C=CC(=O)Nc1cc(Nc2ncnc(Nc3cc(F)c(F)cc3C(C)(O)CC)n2)c(OC)cc1N1CC[C@@H](N(C)C)C1 (stereo partly drawn) :: condition not met
C=CC(=O)Nc1cc(Nc2nccc(Nc3cc(Cl)c(F)cc3C(C)(O)CC)n2)c(OC)cc1N1CC[C@@H](N(C)C)C1 (single isomer, unassigned) [Compound 76] :: condition not met

Does `C=CC(=O)Nc1cc(Nc2ncnc(Nc3cc(F)c(F)cc3C(C)(C)O)n2)c(OC)cc1N1CCC[C@@H]1CN(C)C` have a reported pIC50 of at least 8?
condition met
